Biological target: WT (SEQ ID NO.1) AtPPO1 (Arabidopsis thaliana)
Construct: made in house; host or cells: E. coli BL21 (DE3) hemG, crude extract
Sequence (P55826 35-537): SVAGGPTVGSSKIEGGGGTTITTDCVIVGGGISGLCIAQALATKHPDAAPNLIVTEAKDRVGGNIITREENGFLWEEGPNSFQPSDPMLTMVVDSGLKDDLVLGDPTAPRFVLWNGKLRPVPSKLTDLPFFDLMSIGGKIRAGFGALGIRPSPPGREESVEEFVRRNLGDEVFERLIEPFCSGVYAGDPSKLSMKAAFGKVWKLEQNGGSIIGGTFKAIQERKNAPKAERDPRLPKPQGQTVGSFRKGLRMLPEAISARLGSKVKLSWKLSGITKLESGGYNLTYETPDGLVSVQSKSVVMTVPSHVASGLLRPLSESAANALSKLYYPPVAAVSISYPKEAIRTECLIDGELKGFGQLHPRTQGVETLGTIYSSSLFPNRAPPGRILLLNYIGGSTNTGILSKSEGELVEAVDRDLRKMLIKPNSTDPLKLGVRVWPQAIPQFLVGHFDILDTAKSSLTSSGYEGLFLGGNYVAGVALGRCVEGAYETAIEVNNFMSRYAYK
Assay: fluorescent Protoporphyrinogen Oxidase assay, crude extract
Type: biochemical
Settings: read-out: percentage inhibition
Reported values of inhibition at 100 ppm for individual entries
Hi! Could you send only the number? It should be in %, unit omitted.

CCOC(=O)[C@]1(C)CC(c2cc(-n3c(=O)n(C)c(=S)n(C)c3=O)c(F)cc2Cl)=NO1 [Herbicide D] :: 100

Alright, here's another compound for you.
# inhibition at 100 ppm of CC(C)N(C)S(=O)(=O)NC(=O)c1cc(-n2c(=O)cc(C(F)(F)F)n(C)c2=O)c(F)cc1Cl [Herbicide E, saflufenacil] = 100
